target: feline FcRn complex (FcRn-α subunit and β-microglobulin), biotin labeled (feline); assay: SPR, pH 6
Measured pKd by item
Please express pKd as -log10 of the molar concentration.

| Binder | pKd |
| --- | --- |
| feline IgG1a Q311W/D312P/S434Y (antibody, part only; not given: Variable domains, not shown: another chain or arm of the molecule) constant: ASTTAPSVFPLAPSCGTTSGATVALACLVLGYFPEPVTVSWNSGALTSGVHTFPAVLQASGLYSLSSMVTVPSSRWLSDTFTCNVAHPPSNTKVDKTVRKTDHPPGPKPCDCPKCPPPEMLGGPSIFIFPPKPKDTLSISRTPEVTCLVVDLGPDDSDVQITWFVDNTQVYTAKTSPREEQFNSTYRVVSVLPILHWPWLKGKEFKCKVNSKSLPSPIERTISKAKGQPHEPQVYVLPPAQEELSRNKVSVTCLIKSFHPPDIAVEWEITGQPEPENNYRTTPPQLDSDGTYFVYSKLSVDRSHWQRGNTYTCSVSHEALHYHHTQKSLTQSPGK | 8.82 |

IN: Request the reported pKd associated with feline IgG1a S252Y/S434H/Q311W (antibody, part only; not given: variable domains, not shown: another chain or arm of the molecule) constant: ASTTAPSVFPLAPSCGTTSGATVALACLVLGYFPEPVTVSWNSGALTSGVHTFPAVLQASGLYSLSSMVTVPSSRWLSDTFTCNVAHPPSNTKVDKTVRKTDHPPGPKPCDCPKCPPPEMLGGPSIFIFPPKPKDTLYISRTPEVTCLVVDLGPDDSDVQITWFVDNTQVYTAKTSPREEQFNSTYRVVSVLPILHWDWLKGKEFKCKVNSKSLPSPIERTISKAKGQPHEPQVYVLPPAQEELSRNKVSVTCLIKSFHPPDIAVEWEITGQPEPENNYRTTPPQLDSDGTYFVYSKLSVDRSHWQRGNTYTCSVSHEALHHHHTQKSLTQSPGK
OUT: 8.08
